Measured shrunken log2 fold change values are reported for all entries that follow.
System: Escherichia coli TOP10;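 further: peptides expressed intracellularly from a pBAD plasmid library in pooled LB shake-flask culture, induced with 0.3% L-arabinose, DNA abundance read by NGS, three biological replicates, DESeq2 with apeglm shrinkage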
Experiment: shrunken log2 fold change of peptide-encoding DNA abundance (4.5 h post-induction vs induction); higher = less antimicrobial activity (less host growth inhibition)
Conditions: time post-induction: 4.5 h; library: site-saturation at positions 5, 18, 19, 20
property measured: shrunken log2 fold change

1. RRIRTRPPRLPRPRPRPFNFPRP
-0.617
2. RRIRYRPPRLPRPRPRPLVTPRP
-0.616
3. RRIRIRPPRLPRPRPRPQWCPRP
0.307
4. RRIRSRPPRLPRPRPRPQKQPRP
-0.122
5. RRIRIRPPRLPRPRPRPQGGPRP
0.102
6. RRIRQRPPRLPRPRPRPCNKPRP
0.0281
7. RRIRRRPPRLPRPRPRPIMYPRP
-0.186
8. RRIRFRPPRLPRPRPRPLHHPRP
-0.434
9. RRIRTRPPRLPRPRPRPVVFPRP
-0.184
10. RRIRWRPPRLPRPRPRPWEAPRP
0.396
11. RRIRTRPPRLPRPRPRPGGMPRP
-0.117
12. RRIRFRPPRLPRPRPRPGVTPRP
0.0815
13. RRIRMRPPRLPRPRPRPGNWPRP
0.561
14. RRIRGRPPRLPRPRPRPAPIPRP
0.586
15. RRIRQRPPRLPRPRPRPCLCPRP
-0.294
